Molecular target: NLRP3 (Homo sapiens)
Construct: Seed THP-1 cells (25,000 cells/well) containing 1.0 μg/ml LPS in 40 μl of RPMI medium
Sequence (Q96P20 whole entry): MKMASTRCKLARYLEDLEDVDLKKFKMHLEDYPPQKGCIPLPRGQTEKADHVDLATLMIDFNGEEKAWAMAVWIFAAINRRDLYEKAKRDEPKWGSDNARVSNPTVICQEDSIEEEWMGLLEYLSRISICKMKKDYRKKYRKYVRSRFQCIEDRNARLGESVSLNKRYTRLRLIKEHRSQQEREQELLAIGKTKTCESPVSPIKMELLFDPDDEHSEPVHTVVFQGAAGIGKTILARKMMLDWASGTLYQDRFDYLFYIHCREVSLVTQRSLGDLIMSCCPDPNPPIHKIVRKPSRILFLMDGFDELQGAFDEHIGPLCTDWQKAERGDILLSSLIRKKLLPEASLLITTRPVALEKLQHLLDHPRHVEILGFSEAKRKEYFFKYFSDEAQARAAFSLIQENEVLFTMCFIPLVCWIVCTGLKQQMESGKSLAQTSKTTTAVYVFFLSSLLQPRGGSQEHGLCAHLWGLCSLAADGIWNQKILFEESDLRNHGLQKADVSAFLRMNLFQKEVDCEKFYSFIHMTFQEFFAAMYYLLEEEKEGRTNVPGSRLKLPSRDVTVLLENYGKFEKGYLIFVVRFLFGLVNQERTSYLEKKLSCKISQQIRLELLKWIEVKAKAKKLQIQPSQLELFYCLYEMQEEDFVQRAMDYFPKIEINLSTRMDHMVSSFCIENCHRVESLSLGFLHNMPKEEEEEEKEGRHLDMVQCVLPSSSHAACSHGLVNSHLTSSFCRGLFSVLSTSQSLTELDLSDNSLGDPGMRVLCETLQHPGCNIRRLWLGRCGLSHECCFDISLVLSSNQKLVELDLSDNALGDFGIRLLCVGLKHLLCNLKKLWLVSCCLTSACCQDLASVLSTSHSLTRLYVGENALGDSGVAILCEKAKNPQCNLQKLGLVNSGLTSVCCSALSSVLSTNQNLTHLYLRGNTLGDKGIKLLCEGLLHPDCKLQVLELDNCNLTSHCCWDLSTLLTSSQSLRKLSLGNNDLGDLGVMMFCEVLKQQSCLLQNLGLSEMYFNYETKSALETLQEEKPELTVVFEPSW
Assay: THP-1 Cells Pyroptosis Assay
Conditions: THP-1 cells with 1.0 μg/ml LPS; compound 3 hours; nigericin 5 μM 1 hr; resazurin readout
Using IC50 as the sorting value, the categories are LOW: < 5 nM; MEDIUM: ≥ 5 nM and < 30 nM; HIGH: ≥ 30 nM

Study these solved cases before continuing.
COCCN(c1nc2nc(-c3c(C)cc(Cl)cc3O)ccc2o1)[C@@H]1CCCN(C)C1: MEDIUM
Cc1cc(C(F)(F)F)cc(O)c1-c1cc(C(C)(C)O)c2oc(N[C@@H]3CCCN(C)C3)nc2n1: MEDIUM
CCN1CCC[C@@H](Nc2nc3nc(-c4c(C)cc(C#N)cc4O)cnc3o2)C1: LOW
Cc1cc(Cl)cc(O)c1-c1ccc2oc(NC3CCC(CO)N(C)C3)nc2n1 (centres unmarked): HIGH
Cc1cc(C)c(-c2ccc3oc(N[C@@H]4CCCN(C)C4)nc3n2)c(O)c1: LOW
CCN1CCC[C@@H](Nc2nc3nc(-c4c(C)cc(C(F)F)cc4O)ccc3o2)C1: LOW
Cc1cc(C(F)(F)F)cc(O)c1-c1ccc2oc(N3CCOC(CO)C3)nc2n1 (racemic): HIGH
Cc1cc(C(F)(F)F)cc(O)c1-c1ccc2[nH]c(N3CCNCC3)nc2n1: HIGH
Cc1cc(C(F)(F)F)cc(O)c1-c1ccc2oc(N3CCCC(O)C3)nc2n1 (single isomer, unassigned) [Example 3A]: HIGH
CC(=O)c1cc(-c2c(C)cc(C(F)(F)F)cc2O)nc2nc(N[C@@H]3CCCN(C)C3)oc12: MEDIUM

Below: the item to evaluate.
Q: Which band does "Cc1cc(S(C)(=O)=O)cc(O)c1-c1ccc2oc(N[C@@H]3CCCN(C)C3)nc2n1" fall in?
Ans: HIGH

Hey, just so you know, these numbers are from patent US20240279237A1.
